System: HPAF-II cells
Test: HPAF-II Cell Proliferation Assay
Type: cell-based
Details: Homo sapiens; Table 5; HPAF-II mutant KRAS pancreatic cancer cell line; read-out: HPAF-II
value type: IC50

State the recorded IC50 for this entry: Cc1ccc(NC(=O)N2CC[C@@H](CC(F)(F)F)C2)cc1-c1cc(N[C@H](C)CO)nc(N2CCOCC2)c1 [Exarafenib, reference compound]
1 to 10 µM

So what does the record say about IC50 for C[C@@H](NC(=O)c1ncnc(N)c1Cl)c1ncc(C(=O)Nc2cc(C(F)(F)F)c(Cl)cn2)s1 [Tovorafenib, reference compound] ?
1 to 10 µM

* * *

Let's look at some compounds and their measured pIC50.
System: Pa16c cells
Assay: Pa16c Cell Proliferation Assay
Format: cell-based
Settings: Table 2, read-out: Inhibition of cell proliferation in Pa16c (IC50 class)
pIC50: −log10 of the molar value.

- compound: "Cc1ccc(NC(=O)c2cc(C#N)cnn2)cc1-c1cc(N[C@H](C)CO)nc(-c2ccnc(NC(=O)C3CC3)c2)c1 [Example 151]"
  experimental system: "Pa16c cells"
  pIC50: "5.00 to 6.00"
- compound: "Cc1ccc(NC(=O)c2cc(C(F)(F)F)cnn2)cc1-c1ccnc(-c2ccnc(NC(=O)CC3CC3)c2)c1 [Example 22]"
  experimental system: "Pa16c cells"
  pIC50: "> 7.00"
- compound: "Cc1ccc(NC(=O)c2cc(C(F)(F)F)cnn2)cc1-c1cc(N[C@H](C)CO)nc(-c2c(C)n[nH]c2C)c1 [Example 122]"
  experimental system: "Pa16c cells"
  pIC50: "6.30 to 7.00"

Data request, read-out pIC50, for Cc1ccc(NC(=O)c2cc(C(F)(F)F)cnn2)cc1-c1ccnc(-c2cnn(C)c2)c1 [Example 114]
6.30 to 7.00

Item Cc1ccc(NC(=O)c2cc(C(C)(F)F)cnn2)cc1-c1ccnc(-c2ccsc2)c1 [Example 148] has what recorded pIC50?
6.30 to 7.00

Need pIC50, item Cc1ccc(NC(=O)c2cc(C(F)(F)F)cnn2)cc1-c1ccnc(-c2ccnc(NC(=O)C3(C)CCC3)c2)c1 [Example 7]
6.30 to 7.00

I'd like to know its pIC50. The compound in question is Cc1ccc(NC(=O)c2cc(C(C)(F)F)cnn2)cc1-c1ccnc(-c2cncn2C)c1 [Example 138]
6.30 to 7.00
